Cited source: ChEMBL document CHEMBL2311484

- target-or-test-system: Protein farnesyltransferase (Homo sapiens, UniProt P49354+P49356)
- assay-procedure: Inhibition of human recombinant FTase activity using dansyl-GCVLS-peptide
pIC50: −log10 of the molar value.
Rule: pIC50 under 6 gives Not satisfied, otherwise Satisfied.

| compound | class-assignment |
| --- | --- |
| CN(C)c1cc[n+](C(C=C(C#N)C#N)C(=O)N2c3ccccc3Sc3ccc(Cl)cc32)cc1 (stereo not given) | Not satisfied |
| Cc1ccc[n+](C(C=C(C#N)C#N)C(=O)N2c3ccccc3Sc3ccccc32)c1 (stereo not given) | Not satisfied |
| CCOC(=O)/C(C#N)=C\C=C1C=CN(CC(=O)N2c3ccccc3Sc3ccccc32)C=C1 | Satisfied |
| CN(C)c1cc[n+](C(C=C(C#N)C#N)C(=O)N2c3ccccc3Sc3ccccc32)cc1 (stereo not given) | Not satisfied |

Now let's try a different one.
Given the entry CCOC(=O)/C(C#N)=C/C(C(=O)N1c2ccccc2Sc2ccccc21)[n+]1cc(C)cc(C)c1 (stereo not given) , answer whether its pIC50 meets or surpasses 6.
Not satisfied

* * *

- target-or-test-system: Protein farnesyltransferase (Homo sapiens, UniProt P49354+P49356)
- assay-procedure: Inhibition of human recombinant FTase activity using dansyl-GCVLS-peptide
property-label: pIC50
FYI, pIC50 means -log10 of a concentration in mol per litre.

Worked cases, pIC50 given:
| molecule | pIC50 |
| --- | --- |
| Cc1cc(C)c[n+](C(C=C(C#N)C#N)C(=O)N2c3ccccc3Sc3ccccc32)c1 (stereo not drawn) | 5.20 |
| CCOC(=O)/C(C#N)=C\C=C1/C=CC=CN1CC(=O)N1c2ccccc2Sc2ccccc21 | 5.97 |
| CCOC(=O)/C(C#N)=C\C=C1C=CN(CC(=O)N(CC)CC)C=C1 | 4.37 |
| CCOC(=O)/C(C#N)=C/C(C(=O)N1c2ccccc2Sc2ccccc21)[n+]1ccccc1 (stereo not drawn) | 4.82 |
| CN(C)c1cc[n+](C(/C=C/C(=O)O)C(=O)N2c3ccccc3Sc3ccccc32)cc1 (stereo not drawn) | 4.06 |
| N#CC(C#N)=CC=C1C=CN(CC(=O)N2c3ccccc3Sc3ccccc32)C=C1 | 6.19 |

Report pIC50 for CCOC(=O)/C(C#N)=C/C(C(=O)N1c2ccccc2Sc2ccccc21)[n+]1cccc(C)c1 (stereo not drawn) please.
5.15

Report pIC50 for COc1cc[n+](C(C=C(C#N)C#N)C(=O)N2c3ccccc3Sc3ccccc32)cc1 (stereo not drawn) please.
4.99

Report pIC50 for N#CC(C#N)=C/C=C1\C=CC=CN1CC(=O)N1c2ccccc2Sc2ccccc21 please.
5.92

Report pIC50 for CCOC(=O)/C(C#N)=C/C(C(=O)N1c2ccccc2Sc2ccc(Cl)cc21)[n+]1ccc(N(C)C)cc1 (stereo not drawn) please.
5.31

Report pIC50 for CCOC(=O)/C(C#N)=C/C(C(=O)N1c2ccccc2Sc2ccccc21)[n+]1ccc(N(C)C)cc1 (stereo not drawn) please.
5.27

Report pIC50 for CCOC(=O)/C(C#N)=C/C(C(=O)N1c2ccccc2Sc2ccccc21)[n+]1ccc(OC)cc1 (stereo not drawn) please.
4.86

Report pIC50 for N#CC(C#N)=CC(C(=O)N1c2ccccc2Sc2ccccc21)[n+]1ccccc1 (stereo not drawn) please.
4.88
